target: Macrophage migration inhibitory factor (Homo sapiens, UniProt P14174); assay: Inhibition of dopachrome tautomerase activity of human recombinant MIF
Sequence (P14174 whole entry): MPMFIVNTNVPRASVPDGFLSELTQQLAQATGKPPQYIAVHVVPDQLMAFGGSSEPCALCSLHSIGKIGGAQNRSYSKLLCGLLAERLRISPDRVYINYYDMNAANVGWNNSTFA
recordedEndpoint: IC50 (µM)

compound	reported
O=C(NCCC1CC(c2ccc(O)c(F)c2)=NO1)c1ccc(F)cc1 (stereo not drawn)	20
O=C1c2ccccc2C(=O)N1CCC1CC(c2ccc(O)c(F)c2)=NO1 (stereo not drawn)	0.8
COc1ccc(C2=NOC(Cc3noc(C(F)(F)F)n3)C2)cc1F (stereo not drawn)	55

1: COc1ccc(C2=NOC(c3noc(C(F)(F)F)n3)C2)cc1F (stereo not drawn)
2: CC(C)(C)C(=O)NCCC1CC(c2ccc(O)c(F)c2)=NO1 (stereo not drawn)
3: O=C1CCC(=O)N1CCC1CC(c2ccc(O)c(F)c2)=NO1 (stereo not drawn)
Ask | # sort list by recorded IC50, greatest to least Respond with the label ranking, as requested.
Reply | 1, 3, 2
(1: 95 µM, 3: 50 µM, 2: 22 µM)
